Give measured self-cleavage kobs at 40 uM GlcN6P for each item. Keep answers brief.
B1: glmS ribozyme (parent)
chain: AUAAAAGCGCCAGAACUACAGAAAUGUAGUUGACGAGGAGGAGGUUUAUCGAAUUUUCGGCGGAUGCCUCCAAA

- Variants of: B1
- Method Notes: self-cleavage kobs at 40 uM GlcN6P; higher = faster cleavage; RNA array
- Details: with glucosamine-6-phosphate
Variants at the floor of the assay were thinned out.

Reference set (8 entries):
>  <Variant Spec>
G35C C61U

>  <Metric Name>
self-cleavage kobs at 40 uM GlcN6P

>  <Result>
< 1e-05 s⁻¹

$$$$
>  <Variant Spec>
U45C C67A

>  <Metric Name>
self-cleavage kobs at 40 uM GlcN6P

>  <Result>
0.000122 s⁻¹

$$$$
>  <Variant Spec>
G9C G13U G41U G63U

>  <Metric Name>
self-cleavage kobs at 40 uM GlcN6P

>  <Result>
< 1e-05 s⁻¹

$$$$
>  <Variant Spec>
A12C U56G

>  <Metric Name>
self-cleavage kobs at 40 uM GlcN6P

>  <Result>
0.000162 s⁻¹

$$$$
>  <Variant Spec>
U49G U55G U65G

>  <Metric Name>
self-cleavage kobs at 40 uM GlcN6P

>  <Result>
< 1e-05 s⁻¹

$$$$
>  <Variant Spec>
A12U G13A C50G C67U

>  <Metric Name>
self-cleavage kobs at 40 uM GlcN6P

>  <Result>
0.000107 s⁻¹

$$$$
>  <Variant Spec>
C10A A12U

>  <Metric Name>
self-cleavage kobs at 40 uM GlcN6P

>  <Result>
< 1e-05 s⁻¹

$$$$
>  <Variant Spec>
G13C G43U A52U

>  <Metric Name>
self-cleavage kobs at 40 uM GlcN6P

>  <Result>
< 1e-05 s⁻¹

$$$$

Please look at the items below and tell me self-cleavage kobs at 40 uM GlcN6P for each one, in order.
1. G7U A12U A52G U55G
2. A64U C67G
3. A6U G51U
4. A15C U69C
5. A39G U45G
6. U45A U47G
7. U54A U69C
8. A12U A15U C16A G41A G66A

["< 1e-05 s⁻¹", "< 1e-05 s⁻¹", "< 1e-05 s⁻¹", "0.000108 s⁻¹", "0.00047 s⁻¹", "0.000279 s⁻¹", "0.000835 s⁻¹", "< 1e-05 s⁻¹"]
